System: NCI/ADR-RES ovarian
Assay: NCI tumour cell line growth inhibition, 48 h
measured metric: TGI (µM)
Dear colleague, please return just the value in µM, with no unit written.

What measured TGI goes with CN(C)CCCN1c2ccccc2Sc2ccc3ccccc3c21 ?
22.5

Requested field: TGI. Item: O=C1/C(=C/c2ccccc2[N+](=O)[O-])Cc2ccccc21
40.6

Requested read-out: TGI. Entry: OCCNCCN1CCN(CCCN2c3ccccc3Sc3ccc(C(F)(F)F)cc32)CC1
54.6

Reported TGI for CN=c1ccc2nc3ccc(N)cc3sc-2c1 : what is it?
8.44

Which value of TGI has been reported for Cc1cc(S(=O)(=O)/N=C(/N)Nc2ccccc2O)c(SCc2ccccc2)cc1Cl in the records?
36.6

Could you share which TGI value was measured for COc1c(Br)cc2c(c1OC)C(Br)CCC(Br)(Br)C2=O (stereo not given) ?
2.77

Bench note: what TGI did COc1ccc(-c2[nH]c3ccccc3c2-c2ccc(OC)cc2)cc1 show?
15

What value of TGI has been reported for the following compound? Nc1nc(OCc2ccccc2)c2[nH]cnc2n1
414

What value of TGI has been recorded for this entry: CCCCCCCCCCCCCCCCCC[n+]1ccc2c(C)c3c(c(C)c2c1)c1cc(O)ccc1n3CC
39

What value of TGI has been reported for the following compound? COC1=CC(=O)C2=C(C1=O)[C@H]1CC[C@]3(C)[C@@H](O)CC[C@H]3[C@@H]1CC2
84
